Values were extracted from patent US20240309103A1.

# Test target: T1, hNPR1-mFc:hANP or hNPR1-hFc:hANP complex (human, UniProt P01160 124-151)
# T1 construct: also called human NPR1 complexed to ANP
# Procedure details: SPR, mAb captured, 25C
Measured parameter: 100 nM Ag Bound (RU)
Please reply with the bare figure in RU and do not write the unit itself.

Query (binder): mAb22033 (antibody, human IgG4, V domains shown) VH: QVQLVQSGAEVKKPGASVTVSCKASGYTFTDYYMHWVRQAPGQGLEWMGWIKPNSGGTNSAQRFQGRITMTWDTSISTAYMELSRLRSDDTAVYYCSRGGPVMNYYYYYGMDVWGQGTTVTVSS VL: NIQMTQSPSSLSASVGDRVTITCRASQSIDSYLNWYQQKPGKAPKLLIYVASSLQSGVPSRFSGSGSGKDFTLTISSLQPEDFATYYCQQSYSIPTFGQGTRLEIK ; field requested: 100 nM Ag Bound (RU) 84

Query (binder): mAb25497 (antibody, human IgG4, V domains shown) VH: QVQLVQSGAEVKEPGASVKVSCKASGYTFTDYYIHWVRQAPGQGLEWMGWINLNSGGKNHAQKFQGRVTVTSDTSINTAYIELGRLRGDDTAVYYCSRGGGSHYYYYYHGMDVWGQGTTVTVSS VL: DIQMTQSPSSLSASVGDRITITCRASHSIDSYLNWYQQKPGKAPKLLIYPASTLQSGVPSRFSGSGSGTDFTLTISSLQPEDSAIYYCQQSYSTPLTFGGGTKVEIK ; field requested: 100 nM Ag Bound (RU) 59

Query (binder): mAb25491 (antibody, human IgG4, V domains shown) VH: QVQLVQSGAEVMKPGASVKVSCKASGYTFTGYYIHWVRQAPGQGLEWMGWITPNSGATNYAQKFQGRVTLTRDTSISTAYMELTRLKSDDTAVYYCARGGQLEFFYYYYGMDVWGQGTTVTVSS VL: DIQMTQSPSSLSASAGDRVTITCRASQSIDSYLNWYQQKPGKAPKLLISATSGFQSGVPSRFSGSGSGTDFTLTISSLQPEDFGTYYCQQSYTTPITFGQGTRLEIK ; field requested: 100 nM Ag Bound (RU) 71
